Ref: patent US20250042890A1

Item-by-item account of pIC50
- experimental system: MAT2A (Homo sapiens (Human))
- Sequence (P31153 whole entry, species assumed): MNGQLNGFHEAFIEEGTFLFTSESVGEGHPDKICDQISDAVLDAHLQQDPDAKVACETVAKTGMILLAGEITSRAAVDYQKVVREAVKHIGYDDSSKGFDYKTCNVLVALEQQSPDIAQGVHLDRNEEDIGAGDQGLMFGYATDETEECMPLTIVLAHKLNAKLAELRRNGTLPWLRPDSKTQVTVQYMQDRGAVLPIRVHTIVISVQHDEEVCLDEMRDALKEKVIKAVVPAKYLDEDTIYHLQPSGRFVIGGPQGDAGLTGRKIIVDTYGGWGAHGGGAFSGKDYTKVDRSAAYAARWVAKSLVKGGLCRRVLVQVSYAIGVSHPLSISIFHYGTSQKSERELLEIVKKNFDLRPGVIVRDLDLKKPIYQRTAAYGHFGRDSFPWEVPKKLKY
- method notes: MAT2A Biochemical Assay
- setup conditions: Biomol Green readout O.D.620; 1 uM start, 3-fold dilution, 10 doses; read-out: MAT2A enzymatic IC50
pIC50: −log10 of the molar value.

These recorded examples may help you get a feel for the data.
- structure smiles: "C#CC1(Nc2nc(=O)n(-c3nccnc3C)c3cc(Cl)cc(OC)c23)CC1"
  test result: "> 7.30"
- structure smiles: "C#CCNc1nc(=O)n(-c2cccnc2C)c2cc(Cl)cc(F)c12"
  test result: "> 7.30"
- structure smiles: "C#CCNc1nc(=O)n(-c2cccnc2)c2cc(Cl)cc(OC)c12"
  test result: "> 7.30"
- structure smiles: "C=CCNc1nc(=O)n(-c2cccnc2)c2cc(C(F)(F)F)ccc12"
  test result: "> 7.30"

Proceeding to the next compound to report its pIC50.
Measured pIC50, "C#CCNc1nc(=O)n(-c2cnccn2)c2cc(C(F)(F)F)ccc12" : > 7.30
